- Tested on: 388556-164-R-J1-PDC complex spheroid viability;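 also: spheroids exposed to compound for 7 days before readout; 100% = DMSO vehicle control luminescence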
- assayRemarks: Anticancer human tumor 388556-164-R-J1-PDC patient-derived colon adenocarcinoma cell line growth inhibition [RAS]
- conditionNotes: second compound 0.03 µM; first compound 10 µM; active compounds read low
measuredMetric: viability, T/C

CC1(O)CCCC1n1c(=O)c(C(F)F)cc2cnc(NC3CCN(S(C)(=O)=O)CC3)nc21 (centres undefined) + CCn1c(-c2cc(N3CCN(C)CC3)cnc2C(C)OC)c2c3cc(ccc31)-c1csc(n1)CC(NC(=O)C1CC1C)C(=O)N1CCCC(N1)C(=O)OCC(C)(C)C2; 44.2%
C[C@@H](NC(=O)c1ncnc(N)c1Cl)c1ncc(C(=O)Nc2cc(C(F)(F)F)c(Cl)cn2)s1 + CCn1c(-c2cccnc2C(C)OC)c2c3cc(ccc31)N1CCOC(CC(NC(=O)C(C(C)C)N(C)C(=O)C3(F)CCN(C(=O)C#CC(C)(C)N(C)C)CC3)C(=O)N3CCCC(N3)C(=O)OCC(C)(C)C2)C1; 91.1%
CC(Nc1ccc2c(c1)OCCn1cc(N3C(=O)OCC3C(F)F)nc1-2)C(N)=O (centres undefined) + CCn1c(-c2cc(N3CCN(C)CC3)cnc2C(C)OC)c2c3cc(ccc31)-c1csc(n1)CC(NC(=O)C1CC1C)C(=O)N1CCCC(N1)C(=O)OCC(C)(C)C2; 25.7%
CC(=O)OC12COC1CC(O)C1(C)C(=O)C(O)C3=C(C)C(OC(=O)C(O)C(NC(=O)OC(C)(C)C)c4ccccc4)CC(O)(C(OC(=O)c4ccccc4)C21)C3(C)C (centres undefined) + CCn1c(-c2cccnc2C(C)OC)c2c3cc(ccc31)N1CCOC(CC(NC(=O)C(C(C)C)N(C)C(=O)C3(F)CCN(C(=O)C#CC(C)(C)N(C)C)CC3)C(=O)N3CCCC(N3)C(=O)OCC(C)(C)C2)C1; 74.2%
NC1c2ccccc2OC12CCN(c1cnc3c(N4CCCc5ncccc54)n[nH]c3n1)CC2 (centres undefined) + CCn1c(-c2cccnc2C(C)OC)c2c3cc(ccc31)N1CCOC(CC(NC(=O)C(C(C)C)N(C)C(=O)C3(F)CCN(C(=O)C#CC(C)(C)N(C)C)CC3)C(=O)N3CCCC(N3)C(=O)OCC(C)(C)C2)C1; 35.4%
C[C@@H](NC(=O)c1ncnc(N)c1Cl)c1ncc(C(=O)Nc2cc(C(F)(F)F)c(Cl)cn2)s1 + CCn1c(-c2cc(N3CCN(C)CC3)cnc2C(C)OC)c2c3cc(ccc31)-c1csc(n1)CC(NC(=O)C1CC1C)C(=O)N1CCCC(N1)C(=O)OCC(C)(C)C2; 72.4%
CC(Nc1ccc2c(c1)OCCn1cc(N3C(=O)OCC3C(F)F)nc1-2)C(N)=O (centres undefined) + CCn1c(-c2cccnc2C(C)OC)c2c3cc(ccc31)N1CCOC(CC(NC(=O)C(C(C)C)N(C)C(=O)C3(F)CCN(C(=O)C#CC(C)(C)N(C)C)CC3)C(=O)N3CCCC(N3)C(=O)OCC(C)(C)C2)C1; 44.4%
Cc1nc(N2CCC3(CC2)COC(C)C3N)c(CO)nc1Sc1ccnc(N)c1Cl (centres undefined) + CCn1c(-c2cccnc2C(C)OC)c2c3cc(ccc31)N1CCOC(CC(NC(=O)C(C(C)C)N(C)C(=O)C3(F)CCN(C(=O)C#CC(C)(C)N(C)C)CC3)C(=O)N3CCCC(N3)C(=O)OCC(C)(C)C2)C1; 45.1%
CC(=O)OC12COC1CC(O)C1(C)C(=O)C(O)C3=C(C)C(OC(=O)C(O)C(NC(=O)OC(C)(C)C)c4ccccc4)CC(O)(C(OC(=O)c4ccccc4)C21)C3(C)C (centres undefined) + CCn1c(-c2cc(N3CCN(C)CC3)cnc2C(C)OC)c2c3cc(ccc31)-c1csc(n1)CC(NC(=O)C1CC1C)C(=O)N1CCCC(N1)C(=O)OCC(C)(C)C2; 32%
